Where do the numbers come from? From ChEMBL document CHEMBL3853265.

Assay Method Text: Intrinsic clearance in rat hepatocytes assessed per 10^6 cells
Format: ADME, cell-based, Hepatocyte
Readout Name: CLH (µL/min/1e6 cells)
Give bare numbers, in µL/min/1e6 cells.

Ask: Which value of CLH has been reported for O=S(=O)(Nc1cncc(C(F)(F)F)c1)c1ccccc1C(F)(F)F in the records?
Reply: 7

----------
Assignment: determine reported half-life for the given compounds.
Assay Method Text: Half life in rat at 1 mg/kg, iv and 3 mg/kg, po
Type: ADME, organism-based
Reported Conditions: in vivo
Numbers only, in h.

> print(dat)
                      smiles.representation  reported
1  O=S(=O)(Nc1cncc(C(F)(F)F)c1)c1ccccc1C(F)(F)F       3.3

Ask: Which value of half-life has been reported for O=S(=O)(Nc1ccc(C(F)(F)F)nc1)c1ccccc1C(F)(F)F in the records?
Reply: 27.3
